TEST_DESCRIPTION: Caco-2 cell permeability
EXPERIMENTAL_SETUP: human
Could you please report measured Papp B→A for the items listed next?

Indicate its recorded Papp B→A; the molecule in question is CC1(O)CCN(c2ccc3nccc(C(=O)NCC(=O)N4CSC[C@H]4C#N)c3c2)CC1
7.6 ×10⁻⁶ cm/s

Indicate its recorded Papp B→A; the molecule in question is CC(C)C1(O)CCN(c2ccc3nccc(C(=O)NCC(=O)N4CSC[C@H]4C#N)c3c2)CC1
39 ×10⁻⁶ cm/s

Indicate its recorded Papp B→A; the molecule in question is N#C[C@@H]1CSCN1C(=O)CNC(=O)c1ccnc2ccc(N3C[C@@H]4C[C@H]3CO4)cc12
17 ×10⁻⁶ cm/s

Indicate its recorded Papp B→A; the molecule in question is Cc1noc(C)c1-c1ccc2nccc(C(=O)NCC(=O)N3CSC[C@H]3C#N)c2c1
40 ×10⁻⁶ cm/s

Indicate its recorded Papp B→A; the molecule in question is C[C@H]1CCCN(c2ccc3nccc(C(=O)NCC(=O)N4CSC[C@H]4C#N)c3c2)C1=O (single isomer, unassigned)
8 ×10⁻⁶ cm/s

Indicate its recorded Papp B→A; the molecule in question is COC[C@@H]1[C@@H](C)OCCN1c1ccc2nccc(C(=O)NCC(=O)N3CSC[C@H]3C#N)c2c1
23 ×10⁻⁶ cm/s

Indicate its recorded Papp B→A; the molecule in question is CC1(C)CN(c2ccc3nccc(C(=O)NCC(=O)N4CSC[C@H]4C#N)c3c2)CCO1
29 ×10⁻⁶ cm/s

* * *

STUDY_SYSTEM: hFAP (M39-A757) (Homo sapiens (Human))
Sequence (Q12884 39-757): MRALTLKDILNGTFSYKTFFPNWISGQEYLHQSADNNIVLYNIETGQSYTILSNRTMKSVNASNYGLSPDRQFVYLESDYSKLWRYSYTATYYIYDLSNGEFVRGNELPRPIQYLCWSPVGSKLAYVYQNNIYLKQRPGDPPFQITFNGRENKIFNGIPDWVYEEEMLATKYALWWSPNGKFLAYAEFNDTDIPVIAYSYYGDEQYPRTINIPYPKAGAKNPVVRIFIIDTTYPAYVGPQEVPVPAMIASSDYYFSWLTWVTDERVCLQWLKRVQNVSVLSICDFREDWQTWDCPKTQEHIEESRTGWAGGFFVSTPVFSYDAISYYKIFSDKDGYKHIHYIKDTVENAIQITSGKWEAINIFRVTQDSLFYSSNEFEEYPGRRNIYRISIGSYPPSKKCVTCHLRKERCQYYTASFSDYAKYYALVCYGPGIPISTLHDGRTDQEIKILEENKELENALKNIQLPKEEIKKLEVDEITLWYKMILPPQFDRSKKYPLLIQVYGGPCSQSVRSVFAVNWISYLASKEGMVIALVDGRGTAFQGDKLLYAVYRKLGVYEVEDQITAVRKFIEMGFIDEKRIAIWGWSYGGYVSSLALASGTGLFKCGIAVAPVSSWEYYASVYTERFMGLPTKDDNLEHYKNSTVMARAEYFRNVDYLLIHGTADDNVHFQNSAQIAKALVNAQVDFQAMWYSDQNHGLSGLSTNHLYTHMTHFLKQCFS
TEST_DESCRIPTION: hFAP binding assay (surface plasmon resonance)
EXPERIMENTAL_SETUP: SPR, 20° C., single cycle kinetics
VALUE_KIND: hFAP Binding assay k(off) (s⁻¹)
Numeric answer only, unit s⁻¹ assumed.

Indicate its recorded hFAP Binding assay k(off); the compound in question is N#C[C@@H]1CSCN1C(=O)CNC(=O)c1ccnc2ccc(N3CC(F)(F)C3)cc12
0.00018

Indicate its recorded hFAP Binding assay k(off); the compound in question is C[C@H]1COCCN1c1ccc2nccc(C(=O)NCC(=O)N3CSC[C@H]3C#N)c2c1
0.000080

Indicate its recorded hFAP Binding assay k(off); the compound in question is C[C@@H]1CCCN1c1ccc2nccc(C(=O)NCC(=O)N3CSC[C@H]3C#N)c2c1
0.0002

Indicate its recorded hFAP Binding assay k(off); the compound in question is N#C[C@@H]1CSCN1C(=O)CNC(=O)c1ccnc2ccc(N3CCOC4(CCOCC4)C3)cc12
0.0002

Indicate its recorded hFAP Binding assay k(off); the compound in question is N#C[C@@H]1CSCN1C(=O)CNC(=O)c1ccnc2ccc(N3CCC34CCC4)cc12
0.000066

Indicate its recorded hFAP Binding assay k(off); the compound in question is Cc1ccc(-c2ccc3nccc(C(=O)NCC(=O)N4CSC[C@H]4C#N)c3c2)cn1
0.000058

Indicate its recorded hFAP Binding assay k(off); the compound in question is N#C[C@@H]1CSCN1C(=O)CNC(=O)c1ccnc2ccc(N3CC4(CCC4)C3)cc12
0.00012

Indicate its recorded hFAP Binding assay k(off); the compound in question is N#C[C@@H]1CSCN1C(=O)CNC(=O)c1ccnc2ccc(N3CC[C@@H](CO)C3)cc12
0.000050

Indicate its recorded hFAP Binding assay k(off); the compound in question is N#C[C@@H]1CSCN1C(=O)CNC(=O)c1ccnc2ccc(N3CCCOCC3)cc12
0.00021

Indicate its recorded hFAP Binding assay k(off); the compound in question is N#C[C@@H]1CSCN1C(=O)CNC(=O)c1ccnc2ccc(N3CC(Cc4ccc(Cl)cc4)C3)cc12
0.00022

Indicate its recorded hFAP Binding assay k(off); the compound in question is N#C[C@@H]1CSCN1C(=O)CNC(=O)c1ccnc2ccc(N3CC(CCC(F)(F)F)C3)cc12
0.000055

Indicate its recorded hFAP Binding assay k(off); the compound in question is CC1(O)CN(c2ccc3nccc(C(=O)NCC(=O)N4CSC[C@H]4C#N)c3c2)C1
0.000063

Indicate its recorded hFAP Binding assay k(off); the compound in question is N#C[C@@H]1CSCN1C(=O)CNC(=O)c1ccnc2ccc(N3CC(F)(C4CC4)C3)cc12
0.00024

Indicate its recorded hFAP Binding assay k(off); the compound in question is C[C@]1(O)CCN(c2ccc3nccc(C(=O)NCC(=O)N4CSC[C@H]4C#N)c3c2)C1
0.000048

Indicate its recorded hFAP Binding assay k(off); the compound in question is N#C[C@@H]1CSCN1C(=O)CNC(=O)c1ccnc2ccc(N3CC4(CCO4)C3)cc12
0.000085

Indicate its recorded hFAP Binding assay k(off); the compound in question is N#C[C@@H]1CSCN1C(=O)CNC(=O)c1ccnc2ccc(N3CCCC[C@@H](F)C3)cc12
0.00019

Indicate its recorded hFAP Binding assay k(off); the compound in question is N#C[C@@H]1CSCN1C(=O)CNC(=O)c1ccnc2ccc(N3CCOc4ccccc43)cc12
18

Indicate its recorded hFAP Binding assay k(off); the compound in question is N#C[C@@H]1CSCN1C(=O)CNC(=O)c1ccnc2ccc(-c3ccc(F)cn3)cc12
0.00014

Indicate its recorded hFAP Binding assay k(off); the compound in question is COC[C@@H]1CCCN1c1ccc2nccc(C(=O)NCC(=O)N3CSC[C@H]3C#N)c2c1
0.00034

Indicate its recorded hFAP Binding assay k(off); the compound in question is N#C[C@@H]1CSCN1C(=O)CNC(=O)c1ccnc2ccc(N3CC(C(F)F)C3)cc12
0.00011

Indicate its recorded hFAP Binding assay k(off); the compound in question is N#C[C@@H]1CSCN1C(=O)CNC(=O)c1ccnc2ccc(N3CCC(F)(F)C3)cc12
0.00016

Indicate its recorded hFAP Binding assay k(off); the compound in question is N#C[C@@H]1CSCN1C(=O)CNC(=O)c1ccnc2ccc(-c3cccnc3)cc12
0.00021

Indicate its recorded hFAP Binding assay k(off); the compound in question is N#C[C@@H]1CSCN1C(=O)CNC(=O)c1ccnc2ccc(N3CCSCC3)cc12
0.0004

Indicate its recorded hFAP Binding assay k(off); the compound in question is N#C[C@@H]1CSCN1C(=O)CNC(=O)c1ccnc2ccc(N3CC(CCF)C3)cc12
0.00017

Indicate its recorded hFAP Binding assay k(off); the compound in question is N#C[C@@H]1CSCN1C(=O)CNC(=O)c1ccnc2ccc(-c3cnn(C4CCOCC4)c3)cc12
0.000054

Indicate its recorded hFAP Binding assay k(off); the compound in question is CC1(C)COCCN1c1ccc2nccc(C(=O)NCC(=O)N3CSC[C@H]3C#N)c2c1
0.00016

Indicate its recorded hFAP Binding assay k(off); the compound in question is C[C@@H]1COCCN1c1ccc2nccc(C(=O)NCC(=O)N3CSC[C@H]3C#N)c2c1
0.000050

Indicate its recorded hFAP Binding assay k(off); the compound in question is C[C@H]1CCN(c2ccc3nccc(C(=O)NCC(=O)N4CSC[C@H]4C#N)c3c2)CCO1
0.000085

Indicate its recorded hFAP Binding assay k(off); the compound in question is N#C[C@@H]1CSCN1C(=O)CNC(=O)c1ccnc2ccc(N3CC(OC(F)F)C3)cc12
0.000050

Indicate its recorded hFAP Binding assay k(off); the compound in question is C[C@@H]1CN(c2ccc3nccc(C(=O)NCC(=O)N4CSC[C@H]4C#N)c3c2)C[C@H](C)O1
0.00011

Indicate its recorded hFAP Binding assay k(off); the compound in question is N#C[C@@H]1CSCN1C(=O)CNC(=O)c1ccnc2ccc(N3CC(C(F)(F)F)C3)cc12
0.000065

Indicate its recorded hFAP Binding assay k(off); the compound in question is N#C[C@@H]1CSCN1C(=O)CNC(=O)c1ccnc2ccc(N3C[C@@H]4CCC[C@@H]43)cc12 (mixture of isomers)
0.000066

* * *

STUDY_SYSTEM: human Fibroblast activation protein alpha (hFAP) (Homo sapiens (Human)); note: hFAP 2.4 pM
Sequence (Q12884 38-760): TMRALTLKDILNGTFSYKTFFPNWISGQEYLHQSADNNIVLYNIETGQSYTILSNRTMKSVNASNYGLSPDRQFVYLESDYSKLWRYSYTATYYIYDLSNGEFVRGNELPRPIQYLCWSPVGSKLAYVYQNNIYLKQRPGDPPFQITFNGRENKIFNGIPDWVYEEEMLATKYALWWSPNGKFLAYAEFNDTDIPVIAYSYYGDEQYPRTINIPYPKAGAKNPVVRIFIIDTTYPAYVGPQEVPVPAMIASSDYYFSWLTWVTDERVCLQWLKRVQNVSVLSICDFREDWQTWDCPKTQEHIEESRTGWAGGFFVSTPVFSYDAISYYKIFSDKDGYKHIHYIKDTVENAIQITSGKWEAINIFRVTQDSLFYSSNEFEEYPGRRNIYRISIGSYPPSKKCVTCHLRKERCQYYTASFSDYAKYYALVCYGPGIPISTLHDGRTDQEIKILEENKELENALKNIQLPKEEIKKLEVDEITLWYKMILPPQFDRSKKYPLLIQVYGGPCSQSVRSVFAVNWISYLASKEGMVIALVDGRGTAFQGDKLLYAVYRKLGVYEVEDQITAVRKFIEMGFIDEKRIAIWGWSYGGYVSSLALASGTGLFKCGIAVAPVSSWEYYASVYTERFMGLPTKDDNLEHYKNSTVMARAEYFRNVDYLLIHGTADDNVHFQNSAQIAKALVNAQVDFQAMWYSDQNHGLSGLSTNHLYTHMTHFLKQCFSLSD
Entries whose IC50 is below 0.1 nM take 1.0; entries at or above 0.1 nM take 0.0.

Strictly below 0.1 nM: is that where IC50 of N#C[C@@H]1CSCN1C(=O)CNC(=O)c1ccnc2ccc(N3CC4(CC(C(F)(F)F)C4)C3)cc12 [Example 150] sits?
0.0

Strictly below 0.1 nM: is that where IC50 of N#C[C@@H]1CSCN1C(=O)CNC(=O)c1ccnc2ccc(N3CCSCC3)cc12 [Example 3] sits?
0.0

Strictly below 0.1 nM: is that where IC50 of N#C[C@@H]1CSCN1C(=O)CNC(=O)c1ccnc2ccc(N3CCC[C@@H]3C3CC3)cc12 (single isomer, unassigned) [Example 199] sits?
0.0

Strictly below 0.1 nM: is that where IC50 of N#C[C@@H]1CSCN1C(=O)CNC(=O)c1ccnc2ccc(N3CC4(CCS4)C3)cc12 [Example 222] sits?
1.0

Strictly below 0.1 nM: is that where IC50 of COC[C@@H]1CN(c2ccc3nccc(C(=O)NCC(=O)N4CSC[C@H]4C#N)c3c2)CCO1 [Example 93] sits?
1.0

Strictly below 0.1 nM: is that where IC50 of N#C[C@@H]1CSCN1C(=O)CNC(=O)c1ccnc2ccc(N3CCOc4ccccc43)cc12 [Example 6] sits?
0.0

Strictly below 0.1 nM: is that where IC50 of Cn1nccc1-c1ccc2nccc(C(=O)NCC(=O)N3CSC[C@H]3C#N)c2c1 [Example 174] sits?
0.0

Strictly below 0.1 nM: is that where IC50 of N#C[C@@H]1CSCN1C(=O)CNC(=O)c1ccnc2ccc(N3CC(CCC(F)(F)F)C3)cc12 [Example 142] sits?
1.0
